Would you mind telling me the reported pKd of each entry?
Molecular target: T1, biotinylated human DLL3 protein expressed as a human IgG1 fusion protein (human, UniProt Q9NYJ7 27-492, limits assumed, biotinylated)
T1 sequence: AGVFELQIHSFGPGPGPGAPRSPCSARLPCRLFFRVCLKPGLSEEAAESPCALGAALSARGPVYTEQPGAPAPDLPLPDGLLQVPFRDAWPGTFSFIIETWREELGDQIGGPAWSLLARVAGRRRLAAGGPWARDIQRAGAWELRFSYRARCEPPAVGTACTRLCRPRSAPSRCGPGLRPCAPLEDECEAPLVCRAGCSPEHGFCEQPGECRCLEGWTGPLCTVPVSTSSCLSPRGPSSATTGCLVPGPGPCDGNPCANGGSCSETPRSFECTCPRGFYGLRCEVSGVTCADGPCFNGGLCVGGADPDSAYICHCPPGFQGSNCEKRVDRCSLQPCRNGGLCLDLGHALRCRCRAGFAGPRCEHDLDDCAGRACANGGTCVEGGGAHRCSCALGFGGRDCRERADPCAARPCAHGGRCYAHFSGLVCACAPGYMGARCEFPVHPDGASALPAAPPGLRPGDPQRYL
Test: Octet BLI, single 50 nM
# pKd = -log10(concentration in molar units)

# binder 4A04 anti-DLL3 trispecific protein (other, not shown: linker 1808, anti-albumin sdAb, linker 1808, anti-CD3 fragment, His6 1819) EVQLVESGGGLVQPGGSLTLSCAASGSRVSFLSMAWYRQAPGKKRELVAGISARGSTDYIDSVKGRFTISRDNAKNSVYLQMNSLRAEDTAVYYCYAYRWSTRYTYWGQGTLVTVSS ; its pKd = 7.46

# binder 2D03 anti-DLL3 trispecific protein (other, not shown: linker 1808, anti-albumin sdAb, linker 1808, anti-CD3 fragment, His6 1819) EVQLVESGGGLVQPGGSLTLSCVASGKTSSINAMGWYRRAPGKQRELVAGISSDGSKVYADSVKGRFTISRDNAKNSVYLQMNSLRAEDTAVYYCYYFRTVSGVSMRYWGQGTLVTVSS ; its pKd = 8.17

# binder 4B02 anti-DLL3 trispecific protein (other, not shown: linker 1808, anti-albumin sdAb, linker 1808, anti-CD3 fragment, His6 1819) EVQLVESGGGLVQPGGSLTLSCAASGSRVSFLSMAWYRQAPGKKRELVAGISADGSTTYIDSVKGRFTISRDNAKNSVYLQMNSLRAEDTAVYYCYAYRWTTRFTYWGQGTLVTVSS ; its pKd = 8.15

# binder 1G04 anti-DLL3 trispecific protein (other, not shown: linker 1808, anti-albumin sdAb, linker 1808, anti-CD3 fragment, His6 1819) EVQLVESGGGLVQPGGSLTLSCVASGSTSSTNAMGWYRRAPGKQRELVAGISSDGSKVLADSVKGRFTISRDNAKNSVYLQMNSLRAEDTAVYYCYYFRTVNLSSMRYWGQGTLVTVSS ; its pKd = 7.96

# binder 4E02 anti-DLL3 trispecific protein (other, not shown: linker 1808, anti-albumin sdAb, linker 1808, anti-CD3 fragment, His6 1819) EVQLVESGGGLVQPGGSLTLSCAASGSQVSFLSMAWYRQAPGKKRELVAGISADGSTVYIDSVKGRFTISRDNAKNSVYLQMNSLRAEDTAVYYCYAYRWSTRYTYWGQGTLVTVSS ; its pKd = 8.42

# binder 2E011 anti-DLL3 trispecific protein (other, not shown: linker 1808, anti-albumin sdAb, linker 1808, anti-CD3 fragment, His6 1819) EVQLVESGGGLVQPGGSLTLSCVASGSTSSINAIGWYRRAPGKQRELVAGISSDGSSVYADSVKGRFTISRDNAKNSVYLQMNSLRAEDTAVYYCYYFRRVSGSSMRYWGQGTLVTVSS ; its pKd = 8.62

# binder 1E011 anti-DLL3 trispecific protein (other, not shown: linker 1808, anti-albumin sdAb, linker 1808, anti-CD3 fragment, His6 1819) EVQLVESGGGLVQPGGSLTLSCVASGNTSSINAMGWYRRAPGKQRELVAGISSDGSKVYYDSVKGRFTISRDNAKNSVYLQMNSLRAEDTAVYYCYYFRTVRGSSQRYWGQGTLVTVSS ; its pKd = 8.57

# binder 1F010 anti-DLL3 trispecific protein (other, not shown: linker 1808, anti-albumin sdAb, linker 1808, anti-CD3 fragment, His6 1819) EVQLVESGGGLVQPGGSLTLSCVASGSTSRINAMGWYRRAPGKQRELVAGISSDGSKVYKDSVKGRFTISRDNAKNSVYLQMNSLRAEDTAVYYCYYFRTVSGSSMRYWGQGTLVTVSS ; its pKd = 8.20
